Kindly state EC50 for each of the entries shown.
# system under test: T1, ITGA2-His (UniProt P17301 30-1132, limits assumed)
# T1 construct: Coated on the ELISA plate at 2 ug/mL; whole entry P17301 is named; also called ITGA2 protein; not shown: His tag
# T1 sequence (looked up): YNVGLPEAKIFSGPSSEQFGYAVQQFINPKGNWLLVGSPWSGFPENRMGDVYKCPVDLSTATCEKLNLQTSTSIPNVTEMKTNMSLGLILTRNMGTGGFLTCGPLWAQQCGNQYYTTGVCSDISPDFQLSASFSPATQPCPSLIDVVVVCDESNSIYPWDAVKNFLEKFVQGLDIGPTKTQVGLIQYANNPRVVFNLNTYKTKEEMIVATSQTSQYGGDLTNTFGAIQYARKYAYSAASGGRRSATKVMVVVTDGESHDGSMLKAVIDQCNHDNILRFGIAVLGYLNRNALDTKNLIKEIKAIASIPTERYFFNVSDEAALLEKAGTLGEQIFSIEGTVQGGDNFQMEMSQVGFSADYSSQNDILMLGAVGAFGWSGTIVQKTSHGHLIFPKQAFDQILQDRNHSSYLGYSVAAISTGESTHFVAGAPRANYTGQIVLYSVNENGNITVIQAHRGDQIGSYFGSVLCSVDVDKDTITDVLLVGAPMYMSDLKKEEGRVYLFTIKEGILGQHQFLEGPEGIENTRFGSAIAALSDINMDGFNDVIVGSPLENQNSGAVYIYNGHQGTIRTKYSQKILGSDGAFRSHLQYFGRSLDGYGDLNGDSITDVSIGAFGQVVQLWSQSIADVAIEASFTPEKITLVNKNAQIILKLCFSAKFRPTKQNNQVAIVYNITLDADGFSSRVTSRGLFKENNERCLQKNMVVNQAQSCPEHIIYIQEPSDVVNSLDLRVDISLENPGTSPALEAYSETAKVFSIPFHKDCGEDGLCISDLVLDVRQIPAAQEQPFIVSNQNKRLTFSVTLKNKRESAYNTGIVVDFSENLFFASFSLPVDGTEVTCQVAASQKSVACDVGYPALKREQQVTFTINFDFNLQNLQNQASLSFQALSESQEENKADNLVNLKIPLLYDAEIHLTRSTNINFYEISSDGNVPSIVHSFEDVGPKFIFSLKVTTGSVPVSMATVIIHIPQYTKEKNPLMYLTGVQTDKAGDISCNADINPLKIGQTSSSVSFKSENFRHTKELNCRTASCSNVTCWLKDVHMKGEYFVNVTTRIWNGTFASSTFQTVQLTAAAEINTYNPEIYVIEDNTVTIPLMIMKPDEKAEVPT
# assay notes: ELISA, plate coated with 2 ug/mL ITGA2-His, anti-human IgG-Fc-HRP detection
Entry rule: numbers only, all in pM.

Query: Find the recorded EC50 belonging to Chimeric mouse antibody FS002-A208 (antibody, human IgG1, kappa, V domains shown, Chimeric) VH: QVQLQQSGAELVRPGASVTLSCKASGYTFTDYEIHWVKQTPVHGLEWIGAIDPETGGTNYNQKFNDKATLTADKSSSTAYMDLRSLTSEDSAVYYCSRSGYYVSNYESYAMDYWGQGTSVTVSS VL: DIVMTQSQKFMSTSVGDRVSVTCKASQNVGTNVAWYQQKPGQSPKTLIYSASYRFSGVPDRFTGSGSGTDFTLTINNVQSEDLADYFCQQYNIYPLSFGAGTKLELKR and report it.
Reply: 20

Query: Find the recorded EC50 belonging to Humanized antibody FS002-A103-H4L2 (antibody, human IgG1, kappa, V domains shown, Humanized IgG1 kappa) VH: QVQLVQSGAEVKKPGASVKVSCKASGYTFTDYEMHWVRQAPGQGLEWMGVIDPETGGTTYNQKFQGRVTLTADTSISTAYMELSRLRSDDTAVYYCSRSGYYVSSYESYAMDYWGQGTTVTVSS VL: EIVMTQSPKTMSMSPGERVTLSCKASENVGTYVSWYQQKPGQAPRLLIYGASTRESGVPDRFSGSGSGTDFTLTISSLQPEDFAVYYCQNDYSYPFTFGGGTKLEIKR and report it.
Reply: 6

Query: Find the recorded EC50 belonging to Humanized antibody FS002-A153-H4L2 (antibody, human IgG1, kappa, V domains shown, Humanized IgG1 kappa) VH: QVQLVQSGAEVKKPGASVKVSCKASGYTFTDYEMHWVRQAPGQGLEWMGTIDPETGGTTYAQKFQGRVTLTADTSISTAYMELSRLRSDDTAVYYCSRSGYYVSSYESYAMDYWGQGTTVTVSS VL: DIVMTQSPDSLAVSLGERVTMNCKSSQSLLNSGNQKNYLTWYQQKPGQPPKLLIYGASTRESGVPDRFSGSGSGTDFTLTISSLQAEDVAVYYCQNDYSYPFTFGGGTKLEIKR and report it.
Reply: 11

Query: Find the recorded EC50 belonging to Humanized antibody FS002-A103-H4L4 (antibody, human IgG1, kappa, V domains shown, Humanized IgG1 kappa) VH: QVQLVQSGAEVKKPGASVKVSCKASGYTFTDYEMHWVRQAPGQGLEWMGVIDPETGGTTYNQKFQGRVTLTADTSISTAYMELSRLRSDDTAVYYCSRSGYYVSSYESYAMDYWGQGTTVTVSS VL: EIVMTQSPPTLSLSPGERVTLSCRASENVGTYVSWYQQKPGQAPRLLIYGASTRESGIPARFSGSGSGTDFTLTISSLQPEDFAVYYCQNDYSYPFTFGGGTKLEIKR and report it.
Reply: 10

Query: Find the recorded EC50 belonging to Humanized antibody FS002-A153-H5L1 (antibody, human IgG1, kappa, V domains shown, Humanized IgG1 kappa) VH: QVQLVQSGAEVKKPGASVKVSCKASGYTFTDYEMHWVRQAPGQGLEWMGTIDPETGGTTYAQKFQGRVTMTADTSISTAYMELSRLRSDDTAVYYCARSGYYVSSYESYAMDYWGQGTTVTVSS VL: DIVMTQSPDSLAVSLGERVTMSCKSSQSLLNSGNQKNYLTWYQQKPGQPPKLLIYGASTRESGVPDRFTGSGSGTDFTLTISSLQAEDVAVYYCQNDYSYPFTFGGGTKLEIKR and report it.
Reply: 27

Query: Find the recorded EC50 belonging to Humanized antibody FS002-A153-H5L4 (antibody, human IgG1, kappa, V domains shown, Humanized IgG1 kappa) VH: QVQLVQSGAEVKKPGASVKVSCKASGYTFTDYEMHWVRQAPGQGLEWMGTIDPETGGTTYAQKFQGRVTMTADTSISTAYMELSRLRSDDTAVYYCARSGYYVSSYESYAMDYWGQGTTVTVSS VL: DIVMTQSPPTLSVSPGERVTMSCKSSQSLLNSGNQKNYLTWYQQKPGQAPRLLIYGASTRESGVPDRFSGSGSGTDFTLTISSLQPEDFAVYYCQNDYSYPFTFGGGTKLEIKR and report it.
Reply: 24

Query: Find the recorded EC50 belonging to Humanized antibody FS002-A153-H5L5 (antibody, human IgG1, kappa, V domains shown, Humanized IgG1 kappa) VH: QVQLVQSGAEVKKPGASVKVSCKASGYTFTDYEMHWVRQAPGQGLEWMGTIDPETGGTTYAQKFQGRVTMTADTSISTAYMELSRLRSDDTAVYYCARSGYYVSSYESYAMDYWGQGTTVTVSS VL: EIVMTQSPPTLSLSPGERVTMSCRSSQSLLNSGNQKNYLTWYQQKPGQAPRLLIYGASTRESGVPARFSGSGSGTDFTLTISSLQPEDFAVYYCQNDYSYPFTFGGGTKLEIKR and report it.
Reply: 22

Query: Find the recorded EC50 belonging to Humanized antibody FS002-A153-H3L3 (antibody, human IgG1, kappa, V domains shown, Humanized IgG1 kappa) VH: QVQLVQSGAEVKKPGASVKLSCKASGYTFTDYEMHWVRQAPGQGLEWIGTIDPETGGTTYNQKFQGRVTLTADTSISTAYMELSRLRSDDTAVYYCSRSGYYVSSYESYAMDYWGQGTTVTVSS VL: DIVMTQSPDSLAVSLGERATINCKSSQSLLNSGNQKNYLTWYQQKPGQPPKLLIYGASTRESGVPDRFSGSGSGTDFTLTISSLQAEDVAVYYCQNDYSYPFTFGGGTKLEIKR and report it.
Reply: 14

Query: Find the recorded EC50 belonging to Humanized antibody FS002-A153-H5L2 (antibody, human IgG1, kappa, V domains shown, Humanized IgG1 kappa) VH: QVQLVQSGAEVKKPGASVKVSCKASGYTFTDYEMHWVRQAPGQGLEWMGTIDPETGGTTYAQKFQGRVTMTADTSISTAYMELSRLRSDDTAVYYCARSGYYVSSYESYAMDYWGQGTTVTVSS VL: DIVMTQSPDSLAVSLGERVTMNCKSSQSLLNSGNQKNYLTWYQQKPGQPPKLLIYGASTRESGVPDRFSGSGSGTDFTLTISSLQAEDVAVYYCQNDYSYPFTFGGGTKLEIKR and report it.
Reply: 9

Query: Find the recorded EC50 belonging to Humanized antibody FS002-A208-H4L4 (antibody, human IgG1, kappa, V domains shown, Humanized IgG1 kappa) VH: QVQLVQSGAEVKKPGASVKVSCKASGYTFTDYEIHWVRQAPGQGLEWIGAIDPETGGTNYNQKFQGRVTLTADTSISTAYMELSRLRSDDTAVYYCSRSGYYVSNYESYAMDYWGQGTTVTVSS VL: DIQMTQSPSSLSASVGDRVTITCRASQNVGTNVAWYQQKPEKAPKSLIYSASYRFSGVPSRFSGSGSGTDFTLTISSLQPEDFATYYCQQYNIYPLSFGGGTKLELKR and report it.
Reply: 17
